Provide the reported koff of each item.
- systemTested: T1, human Calcitonin Gene-Related Peptide (CGRP) (human, not fully specified)
- T1 construct: also called hCGRP; Human CGRP
- T1 peptide: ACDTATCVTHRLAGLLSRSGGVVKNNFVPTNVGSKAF
- testName: SPR Biacore 8k; antibody amine-coupled to chip, CGRP as analyte
Answers are plain numbers, in s⁻¹.

binder="REMD 128.2 (antibody, human IgG4 S228P, kappa, V domains shown, Humanized full-length IgG (IgG4 constant region, kappa); also called IgG 15 (H4/L3); 15 (H4/L3)) VH: QVQLVQSGAEVVKPGASVKISCKASGYTFTDYYMNWVKQAPGQGLEWIGDVNPNNGGTHYNQKFKGRATLTVDTSISTAYMELSRLRSDDTAVYYCASITIVPVYFDFWGQGTLLTVSS VL: DIQLTQSPSFLSTSVGDRVTITCKASQNVGPNVAWYRQKPGKSPKALIYSASYRYSGVPSRFSGSGSGTEFTLTISSLQPEDFATYICQQYNYYPYTFGQGTKLEIKR" unitsymbol=s⁻¹ measuredvalue=7.57e-06

Task item: State the recorded koff for this entry: REMD 128 (antibody, human IgG4 S228P, kappa, V domains shown, Humanized full-length IgG (IgG4 constant region, kappa); also called IgG 10 (H3/L2); 10 (H3/L2)) VH: QVQLVQSGAEVVKPGASVKVSCKASGYTFTDYYMNWVKQAPGQGLEWIGDVNPNNGGTHYNQKFKGRVTLTVDTSISTAYMELSRLRSDDTAVYYCASITIVPVYFDFWGQGTLVTVSS VL: DIQLTQSPSFLSASVGDRVTITCKASQNVGPNVAWYRQKPGKAPKALIYSASYRYSGVPSRFSGSGSGTEFTLTISSLQPEDFATYICQQYNYYPYTFGQGTKLEIKR
Reply: 5.79e-06
